The values you see were collected from paper PMC10397247.

Molecular target: T1, 4H2961-AA
T1 chain: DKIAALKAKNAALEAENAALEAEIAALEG
Assay: two-hybrid library CCmax;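 also: natural log of median RNA to DNA barcode read ratio; higher means stronger binding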
Details: mean of both orientations
List of interaction score values.
Measured Property: interaction score

Binder | Measured Property | Data Value
DENAALEAEIAALEAEIAALKAKNAALKG [4H1040-AA] | interaction score | -1.24
DENAALEAKNAALEAKIAALKAEIAALEG [4H1449-AA] | interaction score | -1.66
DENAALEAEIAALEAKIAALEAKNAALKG [4H1064-AA] | interaction score | -1.24
DKIAALKAEIAALEAKNAALKAKIAALEG [4H2621-AA] | interaction score | -0.217
DENAALEAKIAALKAKIAALEAKNAALKG [4H1384-AA] | interaction score | -1.37
DKIAALKAENAALEAEIAALKAENAALEG [4H2699-AA] | interaction score | -1.89
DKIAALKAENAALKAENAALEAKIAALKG [4H2774-AA] | interaction score | -0.737
